- System: SF-539 CNS
- assay name: NCI tumour cell line growth inhibition, 48 h
Listed next: entries and their corresponding TGI.
experimental endpoint: TGI (µM)

molecule: CC(C)Oc1cccc(N2C(n3ccnc3)=Nc3ccncc3S2(=O)=O)c1
tested system: SF-539 CNS
experimental endpoint: TGI
unit string: µM
bound sign: =
quantitative result: 20.1
//
molecule: N#Cc1nc2c(S(=O)(=O)c3ccc(Cl)cc3)c(N)n(Nc3cccc(Cl)c3)c2nc1C#N
tested system: SF-539 CNS
experimental endpoint: TGI
unit string: µM
bound sign: =
quantitative result: 0.179
//
molecule: C[C@]12CC[C@H]3[C@@H](CCC4=CC(=O)CC[C@@]43C)[C@@H]1CC[C@@H]2c1csc(N)n1
tested system: SF-539 CNS
experimental endpoint: TGI
unit string: µM
bound sign: =
quantitative result: 27
//
molecule: CN(O)C(=O)/C=C/c1ccc(OCc2cccc(Cl)c2)cc1
tested system: SF-539 CNS
experimental endpoint: TGI
unit string: µM
bound sign: >
quantitative result: 100
//
molecule: CC(=O)O[C@H]1C(=O)[C@@]2(C)C([C@H](OC(=O)c3ccccc3)[C@]3(O)C[C@H](OC(=O)[C@H](O)[C@@H](NC(=O)c4ccccc4)c4ccccc4)C(C)=C1C3(C)C)[C@]1(OC(C)=O)CO[C@@H]1C[C@@H]2O (stereo not given in full)
tested system: SF-539 CNS
experimental endpoint: TGI
unit string: µM
bound sign: >
quantitative result: 50
//
molecule: COc1nc2c(c(O)c(C)c(=O)n2OC2OCC(OC(C)=O)C(OC(C)=O)C2OC(C)=O)c(=O)n1C (stereo not given)
tested system: SF-539 CNS
experimental endpoint: TGI
unit string: µM
bound sign: >
quantitative result: 100
//
molecule: c1ccc(-c2[nH]ncc2-c2ccnc(-c3ccc(OCCn4ccnc4)cc3)c2)nc1
tested system: SF-539 CNS
experimental endpoint: TGI
unit string: µM
bound sign: >
quantitative result: 25
//
molecule: CNC(=O)c1ncccc1Nc1nc(Nc2cc3c(cc2OC)CCCN3C(=O)CN(C)C)nc2[nH]ccc12
tested system: SF-539 CNS
experimental endpoint: TGI
unit string: µM
bound sign: =
quantitative result: 5.13
//
molecule: CN(C)CCNC(=O)c1cccc2c1Nc1ccccc1S2
tested system: SF-539 CNS
experimental endpoint: TGI
unit string: µM
bound sign: =
quantitative result: 28.8
//
molecule: Cc1ccc2c(c1C)C(=O)C1(Cc3cc4c(cc3C1=O)CCC4)C2 (stereo not given)
tested system: SF-539 CNS
experimental endpoint: TGI
unit string: µM
bound sign: >
quantitative result: 100
//
molecule: CNCc1cccc2c1OCCOCCOCCN(C)S(=O)(=O)c1ccc(cc1)-c1cnc(N)c(n1)C(=O)N2
tested system: SF-539 CNS
experimental endpoint: TGI
unit string: µM
bound sign: =
quantitative result: 1.98
//
molecule: CC(C)C(Br)CCC1=CCC(Br)(Br)C1 (stereo not given)
tested system: SF-539 CNS
experimental endpoint: TGI
unit string: µM
bound sign: =
quantitative result: 33.7
//
molecule: COC(=O)/C=C(\C)CC/C=C(\C)CCC1OC1(C)C (stereo not given)
tested system: SF-539 CNS
experimental endpoint: TGI
unit string: µM
bound sign: =
quantitative result: 24.1
//
molecule: Cc1ccc(O)cc1Nc1ccnc2ccc(S(C)(=O)=O)cc12
tested system: SF-539 CNS
experimental endpoint: TGI
unit string: µM
bound sign: =
quantitative result: 7.62
//
molecule: COc1ccc(OC)c(NCC(=O)n2nc(/C=C\c3ccc(O)c(OC)c3)cc2/C=C\c2ccc(O)c(OC)c2)c1
tested system: SF-539 CNS
experimental endpoint: TGI
unit string: µM
bound sign: =
quantitative result: 6.15
